Tested on: MS2 coat protein
Test: apparent KD of MS2 coat protein; designed switch direction (-1 OFF switch, 1 ON switch): 1; higher = weaker reporter binding
Conditions: input ligand: microRNA oligo, concentration not stated
Record form. Attribute: apparent KD of MS2 coat protein. Fill in for each entry.
Output spec: scalar in µM, unitless text.

# input sequence: GAGAGAUGAUUAGGAUAUACGGUGAUAAUGAUAGUAGAAGGAAUUGACAUGAGGAUCACCCAUGUGGGAAUAAUCCAGAGAGAG [Parity 22 - Jieux - Same State NG 1] (Eterna round: R96, puzzle: Same State NG 1) ; wanted: its apparent KD of MS2 coat protein
0.127

# input sequence: AAAAGAAACGCAGGAUAUGCACAUGAGGAUCACCCAUGUCCCACGGGCUCGACCGAGCCUGUGAAGCAGAAGGGUGUAAGAAAA [Erleusor] (Eterna round: R96, puzzle: Same State NG 2) ; wanted: its apparent KD of MS2 coat protein
0.208
